# experimental target: Human M4 (Homo sapiens, UniProt P08173)
# Sequence (P08173 1-479): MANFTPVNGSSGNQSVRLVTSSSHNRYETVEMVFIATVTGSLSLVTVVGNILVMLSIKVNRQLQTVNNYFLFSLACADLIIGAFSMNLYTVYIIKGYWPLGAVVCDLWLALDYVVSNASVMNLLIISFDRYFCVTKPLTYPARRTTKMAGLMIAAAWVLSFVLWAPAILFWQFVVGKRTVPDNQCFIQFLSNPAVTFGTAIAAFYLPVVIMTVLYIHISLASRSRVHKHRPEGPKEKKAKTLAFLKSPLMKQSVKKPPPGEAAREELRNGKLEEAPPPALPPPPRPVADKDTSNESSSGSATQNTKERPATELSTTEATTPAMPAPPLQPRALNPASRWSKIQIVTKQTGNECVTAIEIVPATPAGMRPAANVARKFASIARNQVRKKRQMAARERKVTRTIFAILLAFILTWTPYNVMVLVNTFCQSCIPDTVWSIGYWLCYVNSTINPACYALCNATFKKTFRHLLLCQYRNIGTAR
# assay procedure: mAChR M4 cell-based functional calcium flux assay (human M4/Gqi5/CHO cells)
# reported conditions: decrease of the response to an EC80 concentration of acetylcholine
# Experimental: Human, rat, or mouse M4. cDNA, along with the chimeric G protein Gqi5, were transfected into Chinese hamster ovary (CHO-K1) cells purchased from the American Type Culture Collection using Lipofectamine2000. […] Calcium flux was measured using the Functional Drug Screening System (FDSS) 6000 or 7000 (Hamamatsu Corporation, Tokyo, Japan) as an increase in the fluorescent static ratio. […] Agonist activity was analyzed as a concentration-dependent increase in calcium mobilization upon compound addition. […]

compound: Cc1cccnc1CN1CCC2(CC1)CC2CNc1ccc(-c2cn(C)nc2C)nn1 (centres unmarked)
experimental target: Human M4 (Homo sapiens, UniProt P08173)
IC50 (nM): 271

compound: Fc1ccc(Cl)c(-c2ccc(NC[C@@H]3CC34CCN(CC35CC6CC(CC(C6)C3)C5)CC4)nn2)c1
experimental target: Human M4 (Homo sapiens, UniProt P08173)
IC50 (nM): 69.8

compound: Fc1ccc(Cl)c(-c2ccc(NCC3CC34CCN(CC3CC5C=CC3C5)CC4)nc2)c1 (centres unmarked)
experimental target: Human M4 (Homo sapiens, UniProt P08173)
IC50 (nM): 495

compound: CC(=O)Nc1ccc(-c2ccc(NC[C@H]3CC34CCN(CCC(C)(C)C)CC4)nn2)cc1
experimental target: Human M4 (Homo sapiens, UniProt P08173)
IC50 (nM): 34.3

compound: CC(C)(C)CCN1CCC2(CC1)CC2CNc1ccc(-c2cc(F)ccc2Cl)nn1 (centres unmarked)
experimental target: Human M4 (Homo sapiens, UniProt P08173)
IC50 (nM): 15.6

compound: CC(=O)Nc1ccc(-c2nnc(NCC3CC34CCN(CC3CCCCC3)CC4)c(C)c2C)cc1 (centres unmarked)
experimental target: Human M4 (Homo sapiens, UniProt P08173)
IC50 (nM): 19.7

compound: CC(=O)Nc1ccc(-c2ccc(NC[C@@H]3CC34CCN(CC35CC6CC(CC(C6)C3)C5)CC4)nn2)cc1
experimental target: Human M4 (Homo sapiens, UniProt P08173)
IC50 (nM): 28.7

compound: Cc1nn(C)cc1-c1ccc(NCC2CC23CCN(CC(c2ccccc2)c2ccccc2)CC3)nn1 (centres unmarked)
experimental target: Human M4 (Homo sapiens, UniProt P08173)
IC50 (nM): 543

compound: CC(=O)Nc1ccc(-c2ccc(NC[C@@H]3CC34CCN(CC3CCCCC3)CC4)nn2)cc1
experimental target: Human M4 (Homo sapiens, UniProt P08173)
IC50 (nM): 5.85

compound: Cc1cnn(C)c1-c1ccc(NCC2CC23CCN(CCC(C)(C)C)CC3)nn1 (centres unmarked)
experimental target: Human M4 (Homo sapiens, UniProt P08173)
IC50 (nM): 3.15

compound: Fc1cccc(CN2CCC3(CC2)CC3CNc2ccc(-c3cc(F)ccc3Cl)nn2)c1 (centres unmarked)
experimental target: Human M4 (Homo sapiens, UniProt P08173)
IC50 (nM): 83.3

compound: CC(C)(C)CCN1CCC2(CC1)CC2CNc1ccc(-c2cc(F)cc(F)c2)nn1 (centres unmarked)
experimental target: Human M4 (Homo sapiens, UniProt P08173)
IC50 (nM): 40

compound: CC(=O)Nc1ccc(-c2ccc(NCC3CC34CCN(CCC(C)(C)C)CC4)nn2)cc1 (centres unmarked)
experimental target: Human M4 (Homo sapiens, UniProt P08173)
IC50 (nM): 4.56

compound: CC(=O)Nc1ccc(-c2ccc(NC[C@H]3CC34CCN(CC3CCOCC3)CC4)nn2)cc1
experimental target: Human M4 (Homo sapiens, UniProt P08173)
IC50 (nM): 1810

compound: CCC(C)CN1CCC2(CC1)CC2CNc1ccc(-c2cn(C)nc2C)nn1 (centres unmarked)
experimental target: Human M4 (Homo sapiens, UniProt P08173)
IC50 (nM): 49.5

compound: C1=CC2CC1CC2CN1CCC2(CC1)CC2CNc1ncc(-c2ccccc2)s1 (centres unmarked)
experimental target: Human M4 (Homo sapiens, UniProt P08173)
IC50 (nM): 1270

compound: CC(C)(C)CCN1CCC2(CC1)CC2CNc1ccc(N2CCCC2)nn1 (centres unmarked)
experimental target: Human M4 (Homo sapiens, UniProt P08173)
IC50 (nM): 85.2
